# test_target: human erythrocyte plasma membrane Ca^2+ -ATPase (Homo sapiens)
# Construct: Calmodulin-depleted erythrocyte membranes were prepared by continuous filtration through a hollow fibre; tissue New South Wales Red Cross Transfusion Service, Sydney; host or cells: human packed red blood cells (calmodulin-depleted erythrocyte membranes)
# protocol_text: Ca^2+ -ATPase assay (erythrocyte membranes; Table 1)
# Type: biochemical
# measurement_parameters: read-out: INHIBITION OF Ca^2+ -ATPase IC50
endpoint_name: pIC50
Recall that pIC50 is obtained by taking minus log10 of the concentration measured in molar.

Request the reported pIC50 associated with CCCCCCCCCCc1c(Br)c(O)c(Br)c(O)c1C(=O)OCC
4.16

Try the compound Oc1cc(O)cc(CCCCC/C=C\CCCCCCCc2cc(O)cc(O)c2)c1
4.30

Try the compound Cc1cc(Cc2cc(C)cc(C(C)(C)C)c2O)c(O)c(C(C)(C)C)c1 [reference compound]
4.35

Try the compound CCCCCCCCCc1c(Br)c(O)c(Br)c(O)c1C(=O)OCC
4.36

Try the compound CCCCCCCCCCCCCc1cc(O)cc(O)c1
3.84

====

# test_target: human erythrocyte plasma membrane Ca^2+ -ATPase (Homo sapiens, UniProt P23634)
# Construct: Calmodulin-depleted erythrocyte membranes were prepared by continuous filtration through a hollow fibre; tissue New South Wales Red Cross Transfusion Service, Sydney; host or cells: human packed red blood cells (calmodulin-depleted erythrocyte membranes)
# Sequence (P23634 1-1205 isoform P23634-6): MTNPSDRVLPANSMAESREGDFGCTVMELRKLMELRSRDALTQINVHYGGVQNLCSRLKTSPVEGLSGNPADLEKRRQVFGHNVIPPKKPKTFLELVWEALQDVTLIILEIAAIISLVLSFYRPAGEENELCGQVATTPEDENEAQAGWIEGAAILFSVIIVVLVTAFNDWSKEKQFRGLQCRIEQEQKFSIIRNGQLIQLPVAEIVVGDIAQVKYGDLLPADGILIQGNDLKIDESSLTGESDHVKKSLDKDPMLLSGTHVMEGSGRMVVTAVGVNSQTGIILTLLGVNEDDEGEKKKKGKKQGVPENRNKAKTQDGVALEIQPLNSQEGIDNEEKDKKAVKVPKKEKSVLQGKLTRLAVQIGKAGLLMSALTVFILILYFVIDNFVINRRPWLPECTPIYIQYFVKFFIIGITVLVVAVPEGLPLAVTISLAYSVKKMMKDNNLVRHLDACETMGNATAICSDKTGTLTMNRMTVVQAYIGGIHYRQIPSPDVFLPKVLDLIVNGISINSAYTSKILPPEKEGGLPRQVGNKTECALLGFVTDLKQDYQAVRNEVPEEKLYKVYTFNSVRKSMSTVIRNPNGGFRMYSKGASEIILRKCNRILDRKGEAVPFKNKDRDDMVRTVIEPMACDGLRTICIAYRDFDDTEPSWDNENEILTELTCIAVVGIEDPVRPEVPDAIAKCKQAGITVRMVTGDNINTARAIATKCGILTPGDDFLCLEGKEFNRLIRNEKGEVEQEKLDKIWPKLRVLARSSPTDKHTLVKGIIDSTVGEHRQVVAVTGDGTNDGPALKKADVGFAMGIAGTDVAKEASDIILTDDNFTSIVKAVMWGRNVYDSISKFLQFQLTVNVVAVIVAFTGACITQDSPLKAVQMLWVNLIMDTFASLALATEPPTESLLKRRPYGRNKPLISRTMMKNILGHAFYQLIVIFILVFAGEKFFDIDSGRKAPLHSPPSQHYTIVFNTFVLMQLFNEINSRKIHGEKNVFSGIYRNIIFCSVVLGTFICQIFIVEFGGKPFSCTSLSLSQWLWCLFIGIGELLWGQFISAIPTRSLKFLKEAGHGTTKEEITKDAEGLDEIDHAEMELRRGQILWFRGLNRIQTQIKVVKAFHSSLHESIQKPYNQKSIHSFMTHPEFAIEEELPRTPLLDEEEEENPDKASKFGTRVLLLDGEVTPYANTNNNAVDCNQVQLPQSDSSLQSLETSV
# Sequence (P35613 140-385 partner limits assumed): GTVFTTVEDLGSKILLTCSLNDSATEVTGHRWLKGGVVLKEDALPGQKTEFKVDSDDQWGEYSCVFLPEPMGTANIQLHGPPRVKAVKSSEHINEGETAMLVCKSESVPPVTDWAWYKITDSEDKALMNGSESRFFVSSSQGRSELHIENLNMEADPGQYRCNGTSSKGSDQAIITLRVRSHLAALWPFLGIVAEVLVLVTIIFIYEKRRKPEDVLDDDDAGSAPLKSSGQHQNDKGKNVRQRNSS
# protocol_text: Ca^2+ -ATPase assay (microplate method), absence (-CaM) and presence (+CaM) of calmodulin (Table 1A)
# Assay type: biochemical
# measurement_parameters: absence of calmodulin; read-out: IC50 (-CaM)
endpoint_name: pIC50
Recall that pIC50 is obtained by taking minus log10 of the concentration measured in molar.

Request the reported pIC50 associated with Oc1ccc(CCCCCCCCCCc2ccc(O)cc2O)c(O)c1 [1,10-bis(2,4-dihydroxyphenyl)decane]
5.00

Try the molecule CCCCCCCCCCCCc1ccc(O)cc1O [4-dodecylresorcinol, reference compound]
4.10

Try the molecule Oc1ccccc1CCCCCCCCCc1ccccc1O [1,9-bis(2-hydroxyphenyl)nonane]
4.87

Try the molecule Oc1ccccc1CCCCCCCCc1ccccc1O [1,8-bis(2-hydroxyphenyl)octane]
4.62

Try the molecule CCCCCCCCCc1ccc(O)cc1O
3.90

Try the molecule Cc1ccc(CCCCCCCCCCc2ccc(C)cc2O)c(O)c1 [1,10-bis(2-hydroxy-4-methylphenyl)decane]
4.54

Try the molecule Oc1cccc(CCCCCCCCCCc2cccc(O)c2)c1 [1,10-bis(3-hydroxyphenyl)decane]
4.52

Try the molecule Oc1ccc(CCCCCCCCCCCc2ccc(O)cc2O)c(O)c1 [1,11-bis(2,4-dihydroxyphenyl)undecane]
4.60

Try the molecule Oc1ccc(CCCCCCCCCCCCc2ccc(O)cc2O)c(O)c1 [1,12-bis(2,4-dihydroxyphenyl)dodecane]
4.92

====

# test_target: human erythrocyte plasma membrane Ca^2+ -ATPase (Homo sapiens, UniProt P23634)
# Construct: Calmodulin-depleted erythrocyte membranes were prepared by continuous filtration through a hollow fibre; tissue New South Wales Red Cross Transfusion Service, Sydney; host or cells: human packed red blood cells (calmodulin-depleted erythrocyte membranes)
# protocol_text: Ca^2+ -ATPase assay (erythrocyte membranes; Table 1)
# Type: biochemical
pIC50: −log10 of the molar value.
// n strictly below 4 in pIC50; y otherwise

Say whether CCCCCCCCCCc1ccc(O)cc1 [4-decylphenol] shows pIC50 of 4 or more.
n

Try the molecule CC(C)(C)c1cc(C(C)(C)C)c(O)c(C(C)(C)C)c1 [2,4,6-tri-tert-butylphenol, reference compound]
y

Try the molecule CC(C)(C)CC(C)(C)c1ccc(O)cc1 [4-tert-octylphenol, reference compound]
y

Try the molecule CCCCCCCCCc1cccc(O)c1 [3-nonylphenol]
y

Try the molecule CCCCCCCCc1ccccc1O [2-octylphenol]
y

Try the molecule Oc1ccc(C2CCCCC2)cc1 [4-cyclohexylphenol]
n

Try the molecule CCCCCCCCCc1ccccc1O [2-nonylphenol]
y

Try the molecule Oc1ccccc1C1CCCCC1 [2-cyclohexylphenol]
n
